Each record here notes measured IC50.
# Subject Of Test: Recombinant TYK2 (Homo sapiens)
# Construct: purchased Carna Biosciences
# Sequence (P29597 whole entry): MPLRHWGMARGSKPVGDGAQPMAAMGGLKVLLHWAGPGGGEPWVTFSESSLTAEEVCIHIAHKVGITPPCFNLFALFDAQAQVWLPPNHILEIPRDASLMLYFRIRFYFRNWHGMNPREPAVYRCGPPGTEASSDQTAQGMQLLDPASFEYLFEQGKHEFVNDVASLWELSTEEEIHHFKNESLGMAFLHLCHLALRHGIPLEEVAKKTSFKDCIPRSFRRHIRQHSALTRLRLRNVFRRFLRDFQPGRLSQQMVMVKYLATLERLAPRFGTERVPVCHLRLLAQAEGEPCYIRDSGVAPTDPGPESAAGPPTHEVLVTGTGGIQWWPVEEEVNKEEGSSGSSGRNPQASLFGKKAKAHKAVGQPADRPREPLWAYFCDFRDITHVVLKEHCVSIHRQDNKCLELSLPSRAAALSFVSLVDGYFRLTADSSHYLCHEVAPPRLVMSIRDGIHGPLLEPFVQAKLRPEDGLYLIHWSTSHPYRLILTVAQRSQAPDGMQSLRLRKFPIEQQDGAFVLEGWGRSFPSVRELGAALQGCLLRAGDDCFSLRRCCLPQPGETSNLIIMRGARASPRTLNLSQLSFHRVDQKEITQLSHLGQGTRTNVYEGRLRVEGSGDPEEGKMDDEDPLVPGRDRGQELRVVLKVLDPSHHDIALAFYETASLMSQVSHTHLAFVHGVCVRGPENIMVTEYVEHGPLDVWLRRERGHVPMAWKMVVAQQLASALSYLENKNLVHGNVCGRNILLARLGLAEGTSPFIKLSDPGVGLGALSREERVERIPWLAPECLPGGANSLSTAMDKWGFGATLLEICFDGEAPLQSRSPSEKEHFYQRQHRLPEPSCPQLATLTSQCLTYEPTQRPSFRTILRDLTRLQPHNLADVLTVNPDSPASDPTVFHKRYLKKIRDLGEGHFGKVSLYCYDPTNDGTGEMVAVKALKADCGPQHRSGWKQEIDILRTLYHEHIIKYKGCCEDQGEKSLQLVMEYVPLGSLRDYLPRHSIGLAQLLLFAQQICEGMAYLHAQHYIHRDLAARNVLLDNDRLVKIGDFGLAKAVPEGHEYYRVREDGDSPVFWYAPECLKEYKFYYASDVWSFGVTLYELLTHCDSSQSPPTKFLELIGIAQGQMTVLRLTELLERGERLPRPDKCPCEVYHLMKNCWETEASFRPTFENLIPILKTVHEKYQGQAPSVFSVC
# Method Summary: JAK biochemical assay (LANCE Ultra TR-FRET), TYK2
# Condition Notes: recombinant TYK2, TR-FRET; read-out: Biochemical Assay (μM) TYK2

Below: 5 molecules and their reported IC50.
| Molecule | Recorded Metric | Observed Measurement |
| --- | --- | --- |
| O=C(NCC(F)(F)F)n1cc(-c2cccc3[nH]c(=O)[nH]c23)cn1 | IC50 | > 10 µM |
| CN1CCN(CCC(c2ccc(-n3cc(-c4ccnc5[nH]cnc45)cn3)nc2)C(F)(F)F)CC1 (stereo not shown) | IC50 | > 0.5 µM |
| CS(=O)(=O)CCNC(=O)N1CCN(c2ccnc3[nH]c(=O)[nH]c23)CC1 | IC50 | > 10 µM |
| FC(F)(F)C(CNC1CC1)c1ccc(-n2cc(-c3ccnc4[nH]cnc34)cn2)nc1 (stereo not shown) | IC50 | > 0.5 µM |
| N#CC1CC(NC(=O)n2cc(-c3ccnc4[nH]c(=O)[nH]c34)cn2)C1 (stereo not shown) | IC50 | > 0.5 µM |

Query: For CC(C)(C#N)NC(=O)n1cc(-c2ccnc3[nH]c(=O)[nH]c23)cn1 , what is its reported IC50?
Response: > 1 µM

Query: Could you tell me which IC50 is on file for CNCCC(c1ccc(-n2cc(-c3ccnc4[nH]cnc34)cn2)nc1)C(F)(F)F (stereo not shown) [Example 1198] ?
Response: > 0.5 µM

Query: Would you kindly share the measured IC50 for CS(=O)(=O)NCC(c1ccc(-n2cc(-c3ccnc4[nH]cnc34)cn2)nc1)C(F)(F)F (stereo not shown) ?
Response: > 1 µM

Query: What value of IC50 has been reported for the following molecule? CNC(=O)N1CC(C(O)(c2ccc(-n3cc(-c4ccnc5[nH]cnc45)cn3)nc2)C(F)(F)F)C1 (stereo not shown)
Response: 0.79 µM

Query: Which IC50 is reported for this molecule? OCc1ccc(-n2cc(-c3ccnc4[nH]cnc34)cn2)nc1
Response: > 1 µM
